- target: HLA-A*03:01
- test-protocol: IEDB peptide-MHC binding, purified MHC/direct/fluorescence; filed as Kd, often an IC50 or EC50 that approximates it; bounds were set here for any values at or beyond the usual limits of such assays
- experimental-conditions: source organism: Choclo virus
outcome-measure: Kd

> print(dat)
   sequence.input  reported.value
1       PELGAFFAI         ≥ 20 µM

----------
- target: HLA-A*68:02
- test-protocol: IEDB peptide-MHC binding, purified MHC/competitive/radioactivity; filed as Kd, often an IC50 or EC50 that approximates it; bounds were set here for any values at or beyond the usual limits of such assays
- experimental-conditions: source organism: Dengue virus 2 Jamaica/1409/1983
pKd: −log10 of the molar value.
The entries below are paired with their reported pKd.
outcome-measure: pKd

> print(dat)
   sequence.input       target  reported.value
1       MTTEDMLAV  HLA-A*68:02            7.97
2      TVTGGIFLFL  HLA-A*68:02            7.27

----------
- target: HLA-A*26:01
- test-protocol: IEDB peptide-MHC binding, purified MHC/competitive/radioactivity; filed as Kd, often an IC50 or EC50 that approximates it; bounds were set here for any values at or beyond the usual limits of such assays
- experimental-conditions: source organism: Dengue virus 1 Brazil/97-11/1997
pKd: −log10 of the molar value.
outcome-measure: pKd

> print(dat)
   sequence.input       target  outcome.measure  reported.value
1      ETLGEKWKRQ  HLA-A*26:01              pKd            4.91

----------
- target: HLA-B*35:01
- test-protocol: IEDB peptide-MHC binding, cellular MHC/competitive/fluorescence; bounds were set here for any values at or beyond the usual limits of such assays
- experimental-conditions: source organism: Influenza A virus H3N2
outcome-measure: IC50 (nM)

> print(dat)
   sequence.input  outcome.measure  reported.value
1       LPFDKPTIM             IC50            1600

----------
- target: HLA-B*51:01
- test-protocol: IEDB peptide-MHC binding, purified MHC/competitive/fluorescence; filed as Kd, often an IC50 or EC50 that approximates it; bounds were set here for any values at or beyond the usual limits of such assays
- experimental-conditions: source organism: Giardia lamblia ATCC 50803
outcome-measure: Kd

> print(dat)
   sequence.input  outcome.measure  reported.value
1       STTTCEAGV               Kd         ≥ 20 µM

----------
- target: HLA-A*26:01
- test-protocol: IEDB peptide-MHC binding, purified MHC/competitive/fluorescence; filed as Kd, often an IC50 or EC50 that approximates it; bounds were set here for any values at or beyond the usual limits of such assays
- experimental-conditions: source organism: Entamoeba histolytica HM-1:IMSS
outcome-measure: Kd

> print(dat)
   sequence.input  outcome.measure  reported.value
1       KTRMEDYYL               Kd         ≥ 20 µM

----------
- target: HLA-A*02:01
- test-protocol: IEDB peptide-MHC binding, purified MHC/competitive/fluorescence; filed as Kd, often an IC50 or EC50 that approximates it; bounds were set here for any values at or beyond the usual limits of such assays
- experimental-conditions: source organism: Vibrio vulnificus YJ016
outcome-measure: Kd (µM)

> print(dat)
   sequence.input       target  comparison.sign  reported.value
1       DFISMYFPW  HLA-A*02:01                ≥              20
2       SVMSTFFWE  HLA-A*02:01                ≥              20
3       LLRRRPYPL  HLA-A*02:01                =           0.105
4       RQIQGIAAF  HLA-A*02:01                =            1.65

----------
- target: HLA-B*07:02
- test-protocol: IEDB peptide-MHC binding, purified MHC/direct/fluorescence; filed as Kd, often an IC50 or EC50 that approximates it; bounds were set here for any values at or beyond the usual limits of such assays
- experimental-conditions: source organism: Lake Victoria marburgvirus - Popp
pKd: −log10 of the molar value.
outcome-measure: pKd

> print(dat)
   sequence.input  reported.value
1       FLMRNAIQY          ≤ 4.70

----------
The entries below are paired with their reported IC50.
- target: HLA-A*02:01
- test-protocol: IEDB peptide-MHC binding, purified MHC/competitive/fluorescence; bounds were set here for any values at or beyond the usual limits of such assays
- experimental-conditions: source organism: Zaire ebolavirus
outcome-measure: IC50 (µM)

> print(dat)
    sequence.input  display.unit  comparison.sign  reported.value
 1       AAVSHLTTL            µM                =            1.05
 2       VAFLILPQA            µM                =            0.52
 3       MMKDEPVVF            µM                ≥             116
 4       RLAKLTEAI            µM                =            14.9
 5       GTTFAEGVV            µM                =            31.1
 6       YQGDYKLFL            µM                =           0.601
 7       NTSKSTDFL            µM                ≥             495
 8       QGLIQYPTA            µM                =            46.1
 9       ILMNFHQKK            µM                =            2.47
10       LEKVQRQIQ            µM                ≥             446
11       LGVATAHGS            µM                ≥             277
12       HSQGREAAV            µM                ≥             254
13       RRTRREAIV            µM                ≥            5060
14       NFLIKFLLI            µM                ≥             614
15       KLSSTNQLR            µM                ≥             196
16       QDGLICGLR            µM                =            13.3
17       FQQTNAMVT            µM                =              11
18       GMNAPDDLV            µM                =             6.3
19       QLNETIYTS            µM                =             2.8

----------
- target: HLA-B*57:01
- test-protocol: IEDB peptide-MHC binding, purified MHC/competitive/fluorescence; filed as Kd, often an IC50 or EC50 that approximates it; bounds were set here for any values at or beyond the usual limits of such assays
- experimental-conditions: source organism: Entamoeba dispar SAW760
outcome-measure: Kd

> print(dat)
   sequence.input  reported.value
1       STYQFSLMQ         ≥ 20 µM

----------
- target: HLA-A*32:01
- test-protocol: IEDB peptide-MHC binding, purified MHC/competitive/radioactivity; filed as Kd, often an IC50 or EC50 that approximates it; bounds were set here for any values at or beyond the usual limits of such assays
- experimental-conditions: source organism: Mammarenavirus whitewaterense
pKd: −log10 of the molar value.
outcome-measure: pKd

> print(dat)
   sequence.input  reported.value
1      ELINIPYCNY          ≤ 4.55

----------
- target: HLA-B*58:01
- test-protocol: IEDB peptide-MHC binding, purified MHC/direct/fluorescence; filed as Kd, often an IC50 or EC50 that approximates it; bounds were set here for any values at or beyond the usual limits of such assays
- experimental-conditions: source organism: Yellow fever virus
pKd: −log10 of the molar value.
outcome-measure: pKd

> print(dat)
   sequence.input  reported.value
1       FHERGYVKL          ≤ 4.70

----------
- target: HLA-C*03:03
- test-protocol: IEDB peptide-MHC binding, purified MHC/direct/fluorescence; filed as Kd, often an IC50 or EC50 that approximates it; bounds were set here for any values at or beyond the usual limits of such assays
- experimental-conditions: source organism: Mycobacterium leprae
outcome-measure: Kd (nM)

> print(dat)
   sequence.input  outcome.measure  reported.value
1       IMYNYPAML               Kd              45
